- targetEntity: T1, naked peptide MEDYVNFNFT (human)
- T1 peptide: MEDYVNFNFT
- protocolDescription: ELISA naked peptide; scFv 1 ug/mL; repII
measuredAttribute: OD450 (OD)
Numbers only, in OD.

Documented OD450 of Comparative antibody 2 (Comp-2) scFv, 243LO326 (VH SEQ ID NO: 51 and VL SEQ ID NO: 52 of WO 2022/195028 A2), His-tagged (scFv) scFv: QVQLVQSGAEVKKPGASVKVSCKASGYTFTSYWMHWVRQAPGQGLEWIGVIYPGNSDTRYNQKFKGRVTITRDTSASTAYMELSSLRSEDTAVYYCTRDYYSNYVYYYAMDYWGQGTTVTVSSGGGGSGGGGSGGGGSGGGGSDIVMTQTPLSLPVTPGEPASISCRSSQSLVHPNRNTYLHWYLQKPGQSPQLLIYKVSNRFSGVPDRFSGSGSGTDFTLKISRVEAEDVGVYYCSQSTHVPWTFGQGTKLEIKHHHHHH : 0.04

Data origin: patent US20260232732A1
